Reference for the values: patent US20250215039A1

# Test system: cancer cell lines
# protocol_summary: Cancer cell proliferation activity (CellTiterGlo, 72 h)
# Assay type: cell-based
# particulars: Homo sapiens, SK-N-AS, 72 h, SKNAS (brain), 72 h; read-out: IC50 cell proliferation
pIC50: −log10 of the molar value.
Answer NOT MET if pIC50 is under 6, and MET if it is 6 or more.

chemical_structure | label
CCC[C@]1(CO)O[C@@H](n2cnc3c(N)nc(F)nc32)[C@H](O)[C@@H]1O | MET
C[C@]1(CO)O[C@@H](n2cnc3c(N)nc(F)nc32)[C@H](O)[C@@H]1O | MET
Nc1nc(F)nc2c1ncn2[C@@H]1O[C@H](CO)[C@@H](O)[C@H]1O | MET
C[C@]1(CO)O[C@@H](n2ccc(N)nc2=O)C(F)(F)[C@@H]1O | NOT MET
Nc1nc(F)nc2c1ncn2[C@@H]1O[C@H](CO)[C@@H](O)[C@@H]1O | NOT MET
C[C@]1(CO)O[C@@H](n2ccc(N)nc2=O)[C@@H](O)[C@@H]1O | NOT MET
Nc1nc(=O)n([C@H]2C[C@H](O)[C@](CO)(CF)O2)cc1F | NOT MET
Nc1nc(F)nc2c1ncn2[C@H]1C[C@H](O)[C@@H](CO)O1 | NOT MET
Nc1nc(=O)n([C@H]2C[C@H](O)[C@@H](CO)O2)cc1F | NOT MET
